All figures here come from the supplement of paper PMC12667976.

B1: library; numbered along this chain (parent)
chain: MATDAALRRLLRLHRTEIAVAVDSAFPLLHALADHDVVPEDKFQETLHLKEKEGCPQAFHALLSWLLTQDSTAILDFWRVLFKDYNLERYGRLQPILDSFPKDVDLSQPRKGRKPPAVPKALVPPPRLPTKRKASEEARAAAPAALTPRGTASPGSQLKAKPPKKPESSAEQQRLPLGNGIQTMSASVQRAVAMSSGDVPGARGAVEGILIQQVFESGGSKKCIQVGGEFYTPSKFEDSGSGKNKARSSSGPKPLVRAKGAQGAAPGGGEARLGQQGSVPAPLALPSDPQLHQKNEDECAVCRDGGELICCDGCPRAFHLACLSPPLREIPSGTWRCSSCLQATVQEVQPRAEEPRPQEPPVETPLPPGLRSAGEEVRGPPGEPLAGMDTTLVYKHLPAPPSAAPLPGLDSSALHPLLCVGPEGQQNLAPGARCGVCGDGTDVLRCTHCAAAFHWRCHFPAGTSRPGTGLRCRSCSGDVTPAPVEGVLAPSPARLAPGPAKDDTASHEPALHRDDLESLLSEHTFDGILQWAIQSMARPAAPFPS

- Variants of: B1
- method summary: AIRE transcriptional activation functional score (insulin promoter-GFP; nonsense median 0, synonymous median 1) (normalised score); higher = higher AIRE activity (more reporter activation)
- conditions: with insulin promoter-GFP reporter in HEK293
Output: class label from AIRE transcriptional activation functional score. Mapping: lower segment: < 0.6; middle segment: ≥ 0.6 and < 1; upper segment: ≥ 1

{"variant code": "T391I", "assigned category": "upper segment"}
{"variant code": "Q94W", "assigned category": "upper segment"}
{"variant code": "R356L", "assigned category": "middle segment"}

# input Form: Item = T468I ; Class = ?
# output upper segment

# input Likewise for F215I ?
# output middle segment

# input # iterate: G178W
# output middle segment

# input Try this variant next: P95Y
# output upper segment

# input Query A186M next
# output lower segment

# input What do you get for G477H ?
# output upper segment

# input Record: A25Q
# output lower segment

# input And then P360D , what is it?
# output middle segment

# input Please answer likewise for E40K
# output lower segment

# input Consider next the variant P365W in the same way.
# output upper segment

# input Same lookup for C446M , please.
# output lower segment

# input Then what about the variant A2P ?
# output upper segment

# input Now try G527C .
# output middle segment

# input Do the same for Q276L please
# output middle segment

# input Same thing, different variant: W455N
# output upper segment

# input Record: A152D
# output middle segment

# input What do you have for Q108D ?
# output upper segment

# input Next: A205D
# output middle segment

# input Also need L327N , thanks.
# output upper segment
